- Test system: 782815-120-R-J1-PDC complex spheroid viability;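 further: spheroids exposed to compounds for 7 days before reading; 100% = DMSO vehicle control viability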
- test description: Anticancer human tumor 782815-120-R-J1-PDC patient-derived colon adenocarcinoma cell line growth inhibition [RAS]
- test context: compound 0.01 µM; stronger effect = lower value
- From the text: RAS pathway inhibitors in Combinations in Complex Spheroids A high-throughput screen of multi-cell type tumor spheroids was designed to identify active combinations of RAS pathway inhibitors and targeted small molecules. Complex spheroids include a stromal component modeled by human endothelial cells (HUVEC) and fibroblasts modeled by human mesenchymal stem cells (MSCs). […] Compounds. […] If the clinical Cmax for an agent had not been determined, the highest concentration tested was 10 microM. […]
Each entry below lists one item and its recorded viability, T/C value.
endpoint label: viability, T/C

INSERT INTO measurements (compound, endpoint_label, value_measured) VALUES
  ('CCN1CCN(Cc2ccc(Nc3ncc(F)c(-c4cc(F)c5nc(C)n(C(C)C)c5c4)n3)nc2)CC1', 'viability, T/C', '99.6% [middle of 4 runs]'),
  ('O=C(c1ccc(F)c(F)c1Nc1ccc(I)cc1F)N1CC(O)([C@@H]2CCCCN2)C1', 'viability, T/C', '82.9% [middle of 4 runs]'),
  ('C=CC(=O)Nc1cc(Nc2nccc(-c3cn(C)c4ccccc34)n2)c(OC)cc1N(C)CCN(C)C', 'viability, T/C', '99.9% [middle of 4 runs]'),
  ('CC(C)n1nc(-c2ccc3oc(N)nc3c2)c2c(N)ncnc21', 'viability, T/C', '90.3% [middle of 4 runs]'),
  ('C=CC(=O)N1CCN(c2nc(OCC3CCCN3C)nc3c(F)c(-c4nc(N)cc(C)c4C(F)(F)F)c(Cl)cc23)C(C)C1 (stereo unspecified)', 'viability, T/C', '102% [middle of 12 runs]'),
  ('Nc1ccn(C2OC(CO)C(O)C2(F)F)c(=O)n1 (stereo unspecified)', 'viability, T/C', '71.8% [middle of 4 runs]');
